- Test system: SF-268 CNS
- ASSAY NAME: NCI tumour cell line growth inhibition, 48 h
MEASURED PARAMETER: TGI (µM)
The reply should be a number in µM, with the unit left off.

Q. Given the entry `CCCCCCCCCCC/C=C\C[C@H](O)C/C=C1/C(=O)C=C[C@@H]1C/C=C\CCCC(=O)OC` , report its measured TGI.
A. 3.97

Q. Given the entry `Cc1cccc2nc3cccc(C(=O)NCCNCCNCCNC(=O)c4cccc5nc6cccc(C)c6nc45)c3nc12` , report its measured TGI.
A. 1.7

* * *

- System: MOLT-4 leukemia
- ASSAY NAME: NCI tumour cell line growth inhibition, 48 h
Give TGI for every item shown.

Q. Find the measured TGI: item `CC(=O)Nc1ccc(-c2nc3ccccc3s2)cc1C` , target or system MOLT-4 leukemia.
A. > 100 µM

Q. Find the measured TGI: item COc1cc2c(cc1OC)CN1CCCc3cc(OC)c(OC)cc3C1C2 (stereo not given) , target or system MOLT-4 leukemia.
A. > 100 µM

Q. Find the measured TGI: item `O=C(Nc1nc(C23CC4CC(CC(C4)C2)C3)cs1)c1cc2cc(Cl)ccc2oc1=O` , target or system MOLT-4 leukemia.
A. > 100 µM

Q. Find the measured TGI: item CC1(C)CCCC(C)(C2CCC3(C)C2C(O)CC2C4(C)CCC(O)C(C)(C)C4C(O)CC23C)O1 (stereo not given) , target or system MOLT-4 leukemia.
A. 16.3 µM

Q. Find the measured TGI: item `O=C1C=CC(=Nc2ccccc2)c2ccccc21` , target or system MOLT-4 leukemia.
A. 36.2 µM

Q. Find the measured TGI: item O=C(CC(C(=O)c1cccs1)c1cccs1)c1ccccc1Cl (stereo not given) , target or system MOLT-4 leukemia.
A. > 100 µM

Q. Find the measured TGI: item `COc1ccc2c(c1)[n+]([O-])c(-c1ccc(Br)cc1)c(N)[n+]2[O-]` , target or system MOLT-4 leukemia.
A. > 100 µM

Q. Find the measured TGI: item `CN(C)c1ccc(-c2c(C#N)c(O)n(NS(=O)(=O)c3ccccc3)c(=O)c2C#N)cc1` , target or system MOLT-4 leukemia.
A. > 100 µM

Q. Find the measured TGI: item `C[C@H](NC(=O)n1c2ccccc2c2ccccc21)C(=O)O` , target or system MOLT-4 leukemia.
A. > 100 µM

Q. Find the measured TGI: item `CCOC(=O)/C(C#N)=C1/Sc2c(ncn(/N=C/c3ccc(OC)cc3)c2=O)N1c1ccccc1` , target or system MOLT-4 leukemia.
A. > 100 µM

* * *

Give GI50 for every item shown.
- Test system: SW-620 colon
- ASSAY NAME: NCI tumour cell line growth inhibition, 48 h

Q. Given the entry C=C1COC(O)(C2OCOC(C3CC(=O)NC(=O)C3)C2O)C1C (stereo not drawn) , report its measured GI50.
A. 0.00288 µM

Q. Given the entry `CO[C@]12C=C/C(=C(/C(=O)OCc3cccnc3)C(=O)CCCCCCCC[C@@]3(OC)C=C/C(=C(/C(=O)OCc4cccnc4)C(=O)CCCCCCCC1)O3)O2` , report its measured GI50.
A. 1.62 µM

Q. Given the entry `O=C(N=Nc1c(O)[nH]c2ccccc12)c1oc2ccccc2c1CN1CCN(c2ccccc2)CC1` , report its measured GI50.
A. 1.5 µM

Q. Given the entry `COC(=O)C[CH2][Ge]([CH3])([CH3])[S]c1ccccc1` , report its measured GI50.
A. 16.7 µM

Q. Given the entry `O=C1C(Nc2ccc(Br)cc2)=C(I)C(=O)c2ncccc21` , report its measured GI50.
A. 0.531 µM

Q. Given the entry NC1CCC(Nc2nc(NCc3cc(Cl)ccc3O)c3ncn(C4CCCC4)c3n2)CC1 (stereo not drawn) , report its measured GI50.
A. 0.15 µM

Q. Given the entry `C1COCCOCCOCCOCCOCCO1.[Cl][Sn]([Cl])([c]1ccccc1)[c]1ccccc1` , report its measured GI50.
A. 1.65 µM

Q. Given the entry `CC(C)(CCN=C(N)Nc1ccccn1)c1ccc(C(F)(F)F)cc1` , report its measured GI50.
A. 16.1 µM

* * *

Give TGI for every item shown.
- Tested on: T-47D breast
- ASSAY NAME: NCI tumour cell line growth inhibition, 48 h

Q. Given the entry `COc1cccc(CCNc2c(C#N)c3nc4ccccc4n3c3ccccc23)c1` , report its measured TGI.
A. > 52.6 µM

Q. Given the entry O=c1c2ccccc2nc2n1C(c1ccc([N+](=O)[O-])cc1)C2(c1ccccc1)c1ccccc1 (stereo unspecified) , report its measured TGI.
A. > 100 µM

Q. Given the entry `CO/C(=C/C(=O)C(Cl)(Cl)Cl)CC/C(=C\C(=O)C(Cl)(Cl)Cl)OC` , report its measured TGI.
A. 72.5 µM

Q. Given the entry `COc1ccc(-c2nnc3n(Cc4ccccc4)c4ccccc4n3c2=O)cc1` , report its measured TGI.
A. > 100 µM

Q. Given the entry `COC(=O)/C=C(/C(=O)OC)c1cc2ccc3c([nH]c4ccccc43)c(C)c-2c1` , report its measured TGI.
A. > 100 µM

Q. Given the entry `COC(=O)[C@@]1(Cc2ccc(O)cc2)C[C@@H]2Cc3ccccc3N2N1` , report its measured TGI.
A. > 100 µM

Q. Given the entry `CC(C)OP(=O)(OC(C)C)c1ccc2c(c1)OCCOCCOCCOCCO2` , report its measured TGI.
A. > 100 µM

Q. Given the entry `CC(C)COC(=O)OC(=O)c1ccc(N(C)Cc2cnc3nc(N)nc(N)c3n2)cc1` , report its measured TGI.
A. > 100 µM

Q. Given the entry `CCN(Cc1ccccc1Cl)c1ccc(CO)c(Cl)c1` , report its measured TGI.
A. 0.522 µM

Q. Given the entry `c1cc(CSSCc2ccncc2)ccn1` , report its measured TGI.
A. > 100 µM

Q. Given the entry CC1CCCCN1CC(=O)c1ccc2c(c1)Sc1ccccc1O2 (stereo unspecified) , report its measured TGI.
A. 48 µM

Q. Given the entry CCC(C)[C@H](NC(=O)NC(=O)NC(=O)CI)C(=O)OC (stereo partly specified) , report its measured TGI.
A. 34.8 µM

Q. Given the entry `CSc1c(C(=O)Nc2ccc(C)cc2)c(N)n(N)c(=O)c1C#N` , report its measured TGI.
A. > 100 µM

Q. Given the entry `COc1ccc(-c2nn(-c3cccc(NC(=O)Nc4ccccc4)c3)cc2-c2ccncc2)cc1Cl` , report its measured TGI.
A. 5.39 µM

Q. Given the entry COC(CC1(/C=C/O[Si](C(C)C)(C(C)C)C(C)C)C(=O)N(COCC[Si](C)(C)C)c2ccccc21)OC (stereo unspecified) , report its measured TGI.
A. > 100 µM

Q. Given the entry `CCOC(=O)c1ccc2c(c1)nc(/C=C/c1ccc(Cl)cc1)n2-c1cc(C(C)(C)C)[nH]n1` , report its measured TGI.
A. 52.4 µM

Q. Given the entry COC(=O)C(Cc1ccccc1)NP(=O)(O)OCC1OC(n2cc(I)c(=O)[nH]c2=O)CC1O (stereo unspecified) , report its measured TGI.
A. > 100 µM

Q. Given the entry `N=C(N)SCc1cc(Cl)cc(Cl)c1O` , report its measured TGI.
A. 51.8 µM

Q. Given the entry `Cc1ccc(S(=O)(=O)N2c3ccccc3[C@H]3CCC=C[C@H]32)cc1` , report its measured TGI.
A. > 100 µM

Q. Given the entry C=C1CCC2C3(C)COC(c4c(OC)cccc4OC)OC3CCC2(C)C1C/C=C1/C(=O)OCC1O (stereo unspecified) , report its measured TGI.
A. 26.9 µM

Q. Given the entry COc1ccc(CNC(C)C(=O)O)cc1 (stereo unspecified) , report its measured TGI.
A. > 100 µM

* * *

- Tested on: SN12C renal
- ASSAY NAME: NCI tumour cell line growth inhibition, 48 h
MEASURED PARAMETER: TGI

Q. Given the entry CC(Oc1ccc(OCC2CCCCC2)cc1)C(=O)NCCO (stereo not given) , report its measured TGI.
A. > 100 µM

Q. Given the entry `CCN1C(=O)/C(=C2\SC(c3ccccc3)(c3ccccc3)c3ccccc32)SC1=S` , report its measured TGI.
A. > 100 µM

Q. Given the entry `O=C(NNC(=S)Nc1ccc(Br)cc1)c1cc(-c2ccccc2)nc2ccccc12` , report its measured TGI.
A. 37.1 µM

Q. Given the entry CCOC(=O)C1=C(C)N(Cc2ccccc2)C(=O)C1CC#N (stereo not given) , report its measured TGI.
A. > 100 µM

Q. Given the entry `O=C(Nc1c(C(=O)NC2CCCCC2)[nH]c(=O)[nH]c1=O)c1ccc(Cl)cc1` , report its measured TGI.
A. > 100 µM

* * *

- Test system: A549 NSCLC
- ASSAY NAME: NCI tumour cell line growth inhibition, 48 h; in the data active = GI50 below about 0.43 µM; inactive = the rest
Write down one outcome, taken from Yes (active), No (inactive)

Q. Per the records of this test, what outcome belongs to CC[C@@H](C(=O)[C@H](C)[C@H](O)[C@@H](C)[C@H]1O[C@H]([C@@H](CC)C(=O)O)CC[C@H]1C)C1O[C@]2(C=C[C@@H](O)[C@]3(CC[C@@](C)([C@H]4CC[C@](O)(CC)[C@H](C)O4)O3)O2)[C@H](C)C[C@@H]1C (some centres not stated) ?
A. Yes

Q. Per the records of this test, what outcome belongs to `c1ccc(Nc2nc(-c3ccccn3)cs2)nc1` ?
A. No

Q. Per the records of this test, what outcome belongs to `NCCCCCCCCCCCn1c2c(c3ccccc3c1=O)C(=O)c1ccccc1-2` ?
A. No

Q. Per the records of this test, what outcome belongs to `CCCC[n+]1c(/C=C\c2c(OC)cc(OC)cc2OC)ccc2ccccc21` ?
A. No

Q. Per the records of this test, what outcome belongs to `COC(=O)c1ccc2c(c1)C(=O)c1c-2n(C)c(=O)c2cc(OC)c(OC)cc12` ?
A. No

Q. Per the records of this test, what outcome belongs to `NCCCn1c2c(c3ccc([N+](=O)[O-])cc3c1=O)C(=O)c1cc(-c3ccccc3)ccc1-2` ?
A. Yes

Q. Per the records of this test, what outcome belongs to CCC(C)[C@H](NC(=O)NC(=O)NC(=O)CI)C(=O)OC (some centres not stated) ?
A. No

Q. Per the records of this test, what outcome belongs to CC1SC2(CCC(c3ccccc3)CC2)N(NC(=O)c2[nH]c3ccc(F)cc3c2-c2ccccc2)C1=O (configuration not stated) ?
A. No

Q. Per the records of this test, what outcome belongs to `O=C(N=Nc1c(O)[nH]c2ccccc12)c1oc2ccccc2c1CN1CCN(c2ccccc2)CC1` ?
A. No

Q. Per the records of this test, what outcome belongs to `O=C1CCCCC=C1C[N+](=O)[O-]` ?
A. No

Q. Per the records of this test, what outcome belongs to `Clc1nc(Cl)c2c3c(sc2n1)CCCC3` ?
A. No

Q. Per the records of this test, what outcome belongs to `COc1cc(/C=C2\Oc3cc(OCCCN4CCCC4)ccc3C2=O)cc(OC)c1` ?
A. No

Q. Per the records of this test, what outcome belongs to `O=C1C(Nc2ccc(Br)cc2)=C(I)C(=O)c2ncccc21` ?
A. No

Q. Per the records of this test, what outcome belongs to `C1COCCOCCOCCOCCOCCO1.[Cl][Sn]([Cl])([c]1ccccc1)[c]1ccccc1` ?
A. No

Q. Per the records of this test, what outcome belongs to `CCCCCCCCCCC/C=C\C[C@H](O)C/C=C1/C(=O)C=C[C@@H]1C/C=C\CCCC(=O)OC` ?
A. No

Q. Per the records of this test, what outcome belongs to C=C(C)C1CC=C(C)CC1 (configuration not stated) ?
A. No

Q. Per the records of this test, what outcome belongs to `CCOC(=O)c1ccc2c(c1)nc(/C=C/c1ccc(Cl)cc1)n2-c1cc(C(C)(C)C)[nH]n1` ?
A. No
